Assay name: Inhibitory concentration against BaF3 cell line expressed recombinant human CCR3 using the chemotaxis assay
pIC50: −log10 of the molar value.
Observation type: pIC50

>  <Compound>
O=C(NCC1CCCN(C2CCN(Cc3ccc(Cl)c(Cl)c3)CC2)C1)c1ccc2ncccc2c1 (stereo unspecified)

>  <Measured result>
6.87

$$$$
